- MEASUREMENT TARGET: CepR (Burkholderia cenocepacia)
- ASSAY INFO: CepR agonism in E. coli β-galactosidase reporter (Ec-reporter) JLD271 [pJN105-cepR + pSC11-cepI]
- Type: cell-based, B. cenocepacia
- TEST PARAMETERS: Ec-reporter, agonism dose-response
pEC50: −log10 of the molar value.
Output T for pEC50 not less than 7; output F otherwise.

Q. Form field: pEC50 at least 7? Entry: O=C(CCc1ccc(F)cc1)N[C@H]1CCOC1=O
A. T

Q. Form field: pEC50 at least 7? Entry: O=C(CCc1ccccc1)N[C@H]1CCOC1=O
A. F

Q. Form field: pEC50 at least 7? Entry: O=C(CCc1ccc(I)cc1)N[C@H]1CCOC1=O
A. T

Q. Form field: pEC50 at least 7? Entry: O=C(CCc1cccc(Br)c1)N[C@H]1CCOC1=O
A. T

Q. Form field: pEC50 at least 7? Entry: COc1ccc(CCC(=O)N[C@H]2CCOC2=O)cc1
A. T

Q. Form field: pEC50 at least 7? Entry: O=C(CCc1cccc([N+](=O)[O-])c1)N[C@H]1CCOC1=O
A. F

Q. Form field: pEC50 at least 7? Entry: CCCCCC(=O)N[C@H]1CCOC1=O [Compound C6-AHL, hexanoyl L-homoserine lactone, reference compound]
A. F

Q. Form field: pEC50 at least 7? Entry: CCCCCC(O)CC(=O)N[C@H]1CCOC1=O (stereo partly drawn) [3’OH-C8-AHL, reference compound]
A. F

###

- MEASUREMENT TARGET: CepR (Burkholderia cenocepacia)
- Sequence (B4EMD0 1-239): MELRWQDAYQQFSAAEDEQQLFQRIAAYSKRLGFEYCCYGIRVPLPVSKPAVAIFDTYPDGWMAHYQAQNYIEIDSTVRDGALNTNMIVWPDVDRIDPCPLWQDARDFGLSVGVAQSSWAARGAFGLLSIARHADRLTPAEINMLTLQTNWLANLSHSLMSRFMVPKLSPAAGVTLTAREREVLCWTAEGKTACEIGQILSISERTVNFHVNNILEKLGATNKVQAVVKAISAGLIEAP
- ASSAY INFO: CepR antagonism in E. coli β-galactosidase reporter (Ec-reporter), competition against C8-AHL
- Type: cell-based, B. cenocepacia
- TEST PARAMETERS: Ec-reporter; against 10 nM C8-AHL
- Experimental: We began our study by screening the AHL library for CepR modulators using an E. coli-based two plasmid reporter system (Ec-reporter)[38]–[40]. […] Cells were grown for 4 h, OD600 was read, 50 μL aliquots from each well were permeabilized in 200 μL Z Buffer, and then 150 μL of this mixture used to measure the cleavage of 25 μL of 4 mg/mL CPRG in phosphate buffered saline (PBS) at 37 °C until positive control wells developed a deep red color (~30 min). […]
OBSERVATION TYPE: log10(IC50) (log10 of the value in µM)
Recall that a logarithmic scale is used here: each number is log10 of IC50 in µM.

// O=C(N[C@H]1CCOC1=O)C1CCCC1 : log10(IC50) value = 1.51

// CCCC(=O)N[C@H]1CCOC1=O [Compound C4-AHL, butanoyl L-homoserine lactone, reference compound] : log10(IC50) value = 1.30

// O=C(Cc1cccc(Br)c1)N[C@H]1CCOC1=O : log10(IC50) value = 0.43

// O=C(Cc1cccc([N+](=O)[O-])c1)NC1CCOC1=O (stereo not drawn) : log10(IC50) value = 0.15

// O=C(COc1cccc([N+](=O)[O-])c1)N[C@H]1CCOC1=O : log10(IC50) value = 0.48

// O=C(Cc1ccc(F)c(C(F)(F)F)c1)N[C@H]1CCOC1=O : log10(IC50) value = -0.37

// CSc1cccc(CC(=O)NC2CCOC2=O)c1 (stereo not drawn) : log10(IC50) value = 0.49

// O=C(CC1CCCC1)N[C@H]1CCOC1=O : log10(IC50) value = 0.57

// N#Cc1cccc(CC(=O)N[C@H]2CCOC2=O)c1 : log10(IC50) value = 0.43
